Notes on CC50 obtained with KB cells.

>>> print(df.to_string())
                                   molecule  reportedvalue
0  Nc1ncnc2c1ncn2C[C@H]1COP(=O)(O)CO1 [(S)-cHPMPA, reference compound]       > 100 µM
1  Nc1ncnc2c1ncn2C[C@@H](CO)OCP(=O)(O)O [(S)-HPMPA, reference compound]       > 100 µM
2  C[C@H](Cn1cnc2c(N)nc(N)nc21)OCP(=O)(O)O [(R)-PMPDAP, reference compound]       > 100 µM
3  CCCCCCCCCCCCCCCCNC(=O)[C@@H](N)Cc1ccc(OP(=O)(O)CO[C@H](CO)Cn2ccc(N)nc2=O)cc1          90 µM

Next item in the queue.
# query: CC50 | item Nc1ncnc2c1ncn2CCOCP(=O)(O)O [PMEA, reference compound] | system: KB cells
> 100 µM

Data origin, for the record: patent US9550803B2
